assay: Conversion of Prodrugs by Human Liver S9; assay type: in vitro ADME
Entries and their Human Liver S9 % Conversion @ 1 hour
readoutKind: Human Liver S9 % Conversion @ 1 hour

> print(dat)
                                querysmiles  datavalue
1  COC[C@H](NC(=O)c1cnc(C)s1)C(=O)N[C@@H](COC)C(=O)N[C@@H](Cc1ccccc1)C(=O)[C@@](C)(CI)OC=O        29%
2  COC[C@H](NC(=O)c1cnc(C)s1)C(=O)N[C@@H](COC)C(=O)N[C@@H](Cc1ccccc1)C(=O)[C@@](C)(CI)OC(=O)CCCOC(C)=O        11%
3  CCOC(=O)O[C@](C)(CI)C(=O)[C@H](Cc1ccccc1)NC(=O)[C@H](COC)NC(=O)[C@H](COC)NC(=O)c1cnc(C)s1        14%
4  COC[C@H](NC(=O)c1cnc(C)s1)C(=O)N[C@@H](COC)C(=O)N[C@@H](Cc1ccccc1)C(=O)[C@@](C)(CI)OC(=O)CCl        22%
5  COC[C@H](NC(=O)c1cnc(C)s1)C(=O)N[C@@H](COC)C(=O)N[C@@H](Cc1ccccc1)C(=O)[C@@](C)(CI)OC(=O)OCc1oc(=O)oc1C        30%
6  COC[C@H](NC(=O)c1cnc(C)s1)C(=O)N[C@@H](COC)C(=O)N[C@@H](Cc1ccccc1)C(=O)[C@@](C)(CI)OC(=O)Oc1ccccc1        32%
7  COC[C@H](NC(=O)c1cnc(C)s1)C(=O)N[C@@H](COC)C(=O)N[C@@H](Cc1ccccc1)C(=O)[C@@](C)(CI)OC(=O)CCCCSC(C)=O         3%
8  CCOC(=O)CCC(=O)O[C@](C)(CI)C(=O)[C@H](Cc1ccccc1)NC(=O)[C@H](COC)NC(=O)[C@H](COC)NC(=O)c1cnc(C)s1         1%

* * *

molecular target: i20s (Homo sapiens, UniProt P20618+P28062); assay: Purified PI, IC50 against i20s; type: biochemical; details: Table G, read-out: IC50 Slope i20s
pIC50: −log10 of the molar value.
Entries and their pIC50
readoutKind: pIC50

querySmiles	dataValue
CC(C)C[C@H](NC(=O)[C@H](CCc1ccccc1)NC(=O)C[N+]1(COC(=O)C(C)(C)C)CCOCC1)C(=O)N[C@@H](Cc1ccccc1)C(=O)N[C@@H](CC(C)C)C(=O)[C@@]1(C)CO1	7.30
Cc1ccc(S(=O)(=O)OC[C@@](C)(O)C(=O)[C@H](CC(C)C)NC(=O)[C@H](Cc2ccccc2)NC(=O)[C@H](CC(C)C)NC(=O)[C@H](CCc2ccccc2)NC(=O)CN2CCOCC2)cc1	6.50
CC(=O)OC[C@@](C)(O)C(=O)[C@H](CC(C)C)NC(=O)[C@H](Cc1ccccc1)NC(=O)[C@H](CC(C)C)NC(=O)[C@H](CCc1ccccc1)NC(=O)CN1CCOCC1	5.09
CC(C)C[C@H](NC(=O)[C@H](CCc1ccccc1)NC(=O)CN1CCOCC1)C(=O)N[C@@H](Cc1ccccc1)C(=O)N[C@@H](CC(C)C)C(=O)[C@](C)(O)CCl	6.84
CC(C)C[C@H](NC(=O)[C@H](CCc1ccccc1)NC(=O)CN1CCOCC1)C(=O)N[C@@H](Cc1ccccc1)C(=O)N[C@@H](CC(C)C)C(=O)[C@](C)(O)COS(C)(=O)=O	7.01
CC(C)C[C@H](NC(=O)[C@H](CCc1ccccc1)NC(=O)CN1CCOCC1)C(=O)N[C@@H](Cc1ccccc1)C(=O)N[C@@H](CC(C)C)/C(=N/OCc1ccccc1)[C@@]1(C)CO1	5.66
CC(C)C[C@H](NC(=O)[C@H](CCc1ccccc1)NC(=O)CN1CCOCC1)C(=O)N[C@@H](Cc1ccccc1)C(=O)N[C@@H](CC(C)C)C(=O)[C@](C)(O)COC(=O)c1c(Cl)cccc1Cl	6.18
